assayed system: PIK3Cγ_h (Homo sapiens (Human))
pKd: −log10 of the molar value.
Entry flag: TRUE if pKd reaches 5; FALSE if it does not.

compound: Cc1c(F)cccc1Cc1c(CO)nc2c(N)cc(N3CCOCC3)nn12
cat: TRUE
--
compound: Cc1c(Cc2c(COC(=O)C(C)N)nc3c(N)cc(N4CCOCC4)nn23)cccc1C(F)(F)F (stereo not drawn)
cat: FALSE

-- ask Determine whether measured pKd meets or exceeds 5 for `Cc1nc2c(N)cc(N3CCOCC3)nn2c1Nc1cccc(C(F)(F)F)c1CN1CC(S(C)(=O)=O)C1`
-- reply TRUE

----------
assayed system: PIK3Cγ_h (Homo sapiens (Human), UniProt P48736)
Sequence (P48736 whole entry): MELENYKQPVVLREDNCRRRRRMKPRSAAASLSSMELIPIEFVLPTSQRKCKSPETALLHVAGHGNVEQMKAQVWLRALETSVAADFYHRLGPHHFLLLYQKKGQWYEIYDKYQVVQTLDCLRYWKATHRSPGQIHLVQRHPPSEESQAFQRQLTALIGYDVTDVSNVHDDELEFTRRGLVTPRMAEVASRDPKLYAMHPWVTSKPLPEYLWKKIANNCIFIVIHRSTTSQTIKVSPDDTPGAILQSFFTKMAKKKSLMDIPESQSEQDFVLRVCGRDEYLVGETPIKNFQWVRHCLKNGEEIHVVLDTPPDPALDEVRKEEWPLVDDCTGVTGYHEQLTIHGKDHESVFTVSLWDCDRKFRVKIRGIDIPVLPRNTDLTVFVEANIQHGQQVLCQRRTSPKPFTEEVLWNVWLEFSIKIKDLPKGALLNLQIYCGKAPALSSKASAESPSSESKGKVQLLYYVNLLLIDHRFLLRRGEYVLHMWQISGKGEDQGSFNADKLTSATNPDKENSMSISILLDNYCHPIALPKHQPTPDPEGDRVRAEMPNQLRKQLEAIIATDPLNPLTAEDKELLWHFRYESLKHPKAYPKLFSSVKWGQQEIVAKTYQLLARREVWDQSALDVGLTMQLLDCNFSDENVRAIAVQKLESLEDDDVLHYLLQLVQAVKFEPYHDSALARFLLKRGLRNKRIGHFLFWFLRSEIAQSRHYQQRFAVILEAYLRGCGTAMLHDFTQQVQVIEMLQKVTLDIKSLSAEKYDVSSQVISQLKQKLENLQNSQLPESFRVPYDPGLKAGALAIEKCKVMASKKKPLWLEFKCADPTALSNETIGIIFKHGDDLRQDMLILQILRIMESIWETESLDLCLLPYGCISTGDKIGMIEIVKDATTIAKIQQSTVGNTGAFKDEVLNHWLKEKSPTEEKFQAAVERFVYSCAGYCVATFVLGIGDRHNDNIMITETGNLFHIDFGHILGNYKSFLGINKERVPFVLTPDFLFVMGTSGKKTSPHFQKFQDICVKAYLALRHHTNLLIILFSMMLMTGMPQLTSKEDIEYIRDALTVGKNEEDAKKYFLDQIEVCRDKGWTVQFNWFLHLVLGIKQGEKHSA
experiment summary: KINOMEscan enzyme binding assay, PIK3Cγ
setup conditions: DiscoveRx
measure: pKd
// pKd: -log10(molar conc.)

Record excerpt, results attached:
compound: Cc1nc2c(C(=O)O)cc(N3CCOCC3)nn2c1Cc1cccc(C(F)(F)F)c1C [Compound 9]
assayed system: PIK3Cγ_h (Homo sapiens (Human), UniProt P48736)
pKd: 5.28
--
compound: Cc1nc2c(N)cc(N3CCOCC3)nn2c1Nc1cccc(C(F)(F)F)c1C1CCNCC1 [Compound 59]
assayed system: PIK3Cγ_h (Homo sapiens (Human), UniProt P48736)
pKd: 5.47
--
compound: Cc1nc2c(C(N)=O)cc(N3CCOCC3)nn2c1Cc1cccc(Cl)c1C [Compound 11]
assayed system: PIK3Cγ_h (Homo sapiens (Human), UniProt P48736)
pKd: 5.16

-- ask Would you mind telling me what pKd value was observed for Cc1nc2c(-c3c[nH]cn3)cc(N3CCOCC3)nn2c1Nc1cccc(F)c1C [Compound 50] ?
-- reply 5.90

----------
assayed system: PIK3Cβ_h (Homo sapiens (Human))
pKd: −log10 of the molar value.
Quick rule: pKd of at least 9 means Met, below that means Not met.

Some solved cases for reference:
compound: Cc1cccc(Nc2c(C)nc3c(N)cc(N4CCOCC4)nn23)c1C1CCNCC1
cat: Met
//
compound: Cc1nc2c(N)cc(N3CCOCC3)nn2c1Nc1cccc(C(F)(F)F)c1C1CCNCC1
cat: Met

Kindly review the next compound as well.
-- ask Please check the record `Cc1nc2c(N)cc(N3CCOCC3)nn2c1Nc1cccc(C(F)(F)F)c1CN1CCC(S(C)(=O)=O)CC1` and state if its pKd is at or above 9.
-- reply Not met

----------
assayed system: PIK3Cβ_h (Homo sapiens (Human), UniProt P42338)
Sequence (P42338 whole entry): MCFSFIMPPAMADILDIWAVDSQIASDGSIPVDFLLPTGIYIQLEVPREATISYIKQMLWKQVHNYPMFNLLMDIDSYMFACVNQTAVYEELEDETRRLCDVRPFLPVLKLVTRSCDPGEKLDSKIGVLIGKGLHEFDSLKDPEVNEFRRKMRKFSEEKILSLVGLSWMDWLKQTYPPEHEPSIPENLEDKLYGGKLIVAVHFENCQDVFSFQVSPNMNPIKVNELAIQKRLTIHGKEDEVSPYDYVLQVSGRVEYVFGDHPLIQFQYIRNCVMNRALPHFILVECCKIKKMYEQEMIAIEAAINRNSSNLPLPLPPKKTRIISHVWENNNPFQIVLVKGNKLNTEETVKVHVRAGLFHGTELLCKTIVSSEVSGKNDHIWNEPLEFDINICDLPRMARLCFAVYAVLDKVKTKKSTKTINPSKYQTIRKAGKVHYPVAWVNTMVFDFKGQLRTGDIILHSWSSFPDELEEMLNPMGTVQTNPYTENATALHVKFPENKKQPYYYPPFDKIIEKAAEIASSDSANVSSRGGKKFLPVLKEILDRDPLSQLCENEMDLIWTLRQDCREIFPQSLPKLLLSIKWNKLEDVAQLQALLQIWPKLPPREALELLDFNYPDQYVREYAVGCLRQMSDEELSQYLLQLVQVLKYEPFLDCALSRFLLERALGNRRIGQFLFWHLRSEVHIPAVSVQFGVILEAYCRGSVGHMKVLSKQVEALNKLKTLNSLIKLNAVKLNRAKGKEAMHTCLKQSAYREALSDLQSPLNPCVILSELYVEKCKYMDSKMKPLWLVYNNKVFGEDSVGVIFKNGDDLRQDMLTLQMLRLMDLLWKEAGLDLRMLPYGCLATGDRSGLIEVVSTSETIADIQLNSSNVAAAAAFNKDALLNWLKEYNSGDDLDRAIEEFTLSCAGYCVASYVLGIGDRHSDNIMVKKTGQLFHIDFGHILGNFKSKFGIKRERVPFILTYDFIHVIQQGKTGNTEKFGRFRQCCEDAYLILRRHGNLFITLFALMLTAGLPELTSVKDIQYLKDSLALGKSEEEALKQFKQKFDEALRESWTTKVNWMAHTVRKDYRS
Each entry below carries its reported Kd.
Give the value in nM but do not write nM after it.

The cases that follow already have their Kd on record.
compound: Cc1nc2c(-c3ncc[nH]3)cc(N3CCOCC3)nn2c1Nc1cccc(C(F)(F)F)c1C
unit symbol: nM
number: 3

compound: Cc1c(F)cccc1Cc1c(CNCCO)nc2c(N)cc(N3CCOCC3)nn12
unit symbol: nM
number: 1.6

compound: Cc1c(Cc2c(CN)nc3c(N)cc(N4CCOCC4)nn23)cccc1C(F)(F)F
unit symbol: nM
number: 0.7

Now consider a different compound.
-- ask Which measured Kd belongs to Cc1nc2c(N)cc(N3CCOCC3)nn2c1Nc1cccc(C(F)(F)F)c1CN1CCC(O)C1 (stereo not shown) , tested on PIK3Cβ_h (Homo sapiens (Human), UniProt P42338)?
-- reply 1.4
